experiment: Protein binding in rat plasma; type: ADME, cell-free; settings: read-out: PPB (converted)
endpoint: fraction unbound
Respond with the number and no other words.

- COc1ncc(NC(=O)Nc2cnc3ccc(C#N)cc3c2N2CCOC[C@@H]2C)cc1Cl: 0.025

Turning now to a further molecule:
Identify fraction unbound associated with the molecule C[C@H]1COC[C@H](C)N1c1c(NC(=O)Nc2ccnc(C(F)(F)F)c2)cnc2cc(Cl)nn12
0.013

###

test: Clearance in Sprague-Dawley rat at 1 mg/kg, iv administered as cassette dosing; format: ADME, organism-based; conditions: in vivo
endpoint: clearance (mL/min/kg)
State the answer as a number, implicitly in mL/min/kg.

Identify clearance associated with the molecule C[C@H]1COC[C@H](C)N1c1c(NC(=O)Nc2ccnc(C(F)(F)F)c2)cnc2cc(Cl)nn12
41
